- assayProtocol: amyloid nucleation score (Sup35N fusion, yeast selection) (log enrichment); library NNK1; higher = more nucleation; inactive = no reads after selection;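 also: zero at mode of non-aggregating sequences after 7 days selection at 30°C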
Note to self: values exactly at 0.2 are Yes. So amyloid nucleation score at or above 0.2 is Yes, below is No.

Study these solved cases before continuing.
LGRGRKSTMVSQRVERAGVC = No
GLAWTYLRPW = No
AAVCRSILVF = Yes
LKRFMDTDYYFMMKCCTSN = Yes
FTSFFVSV = No

Decide: is the reported value of amyloid nucleation score for MWGTCSYSYLDSCRVTLFMR equal to or greater than 0.2?
Yes

Does amyloid nucleation score meet or surpass 0.2 for FCEHNVISYNESLRM ?
Yes

Is reported amyloid nucleation score greater than or equal to 0.2 here: EEWFETGCENGCNVEGNRSC
No
